For each of the molecules below, state its CC50 at 24 h.
experimental.details: Cytotoxicity against macrophage (unknown origin) assessed as reduction in cell viability after 24 hrs by MTT assay
Assay type: cell-based
study.conditions: macrophages (unknown origin)
All answers are understood in µM, so give the number only.

GET /value?item= O=C(/C=C/c1cccc(Br)c1)NNC(=O)c1ccc2c(c1)OCCO2 &field=CC50 at 24 h returns 351

GET /value?item= O=C(/C=C/c1ccc(F)cc1)NNC(=O)c1ccc2c(c1)OCCO2 &field=CC50 at 24 h returns 319

GET /value?item= O=C(/C=C/c1ccc([N+](=O)[O-])cc1)NNC(=O)c1ccc2c(c1)OCCO2 &field=CC50 at 24 h returns 295

GET /value?item= COc1ccc(/C=C/C(=O)NNC(=O)c2ccc3c(c2)OCCO3)cc1 &field=CC50 at 24 h returns 319

GET /value?item= COc1ccccc1/C=C/C(=O)NNC(=O)c1ccc2c(c1)OCCO2 &field=CC50 at 24 h returns 312

GET /value?item= O=C(/C=C/c1cccc(F)c1)NNC(=O)c1ccc2c(c1)OCCO2 &field=CC50 at 24 h returns 221

GET /value?item= Cc1ccc(/C=C/C(=O)NNC(=O)c2ccc3c(c2)OCCO3)cc1 &field=CC50 at 24 h returns 332

GET /value?item= O=C(/C=C/c1ccccc1F)NNC(=O)c1ccc2c(c1)OCCO2 &field=CC50 at 24 h returns 302

GET /value?item= O=C(/C=C/c1ccccc1Br)NNC(=O)c1ccc2c(c1)OCCO2 &field=CC50 at 24 h returns 315
